Cited source: the Human Domainome abundance scans (Beltran et al. 2025)

B1: Kinesin-like protein KIF16B, residues 1213 to 1273; numbered along this chain, Q96L93 (parent)
chain: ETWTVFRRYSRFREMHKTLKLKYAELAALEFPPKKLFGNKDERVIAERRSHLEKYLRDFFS

- Variants of: B1
- TEST_NAME: abundance fitness (aPCA) (normalised: wild type 0, dead -1); higher = more abundant; growth selection in yeast, the domain comes from the species named
- APPLIED_CONDITIONS: Homo sapiens
MEASURED_QUANTITY: abundance fitness

| SEQUENCE_INPUT | MEASURED_QUANTITY | OBSERVED_MEASUREMENT |
| --- | --- | --- |
| ETWTVFRRYSRFREMHKTLKLKYAELAMLEFPPKKLFGNKDERVIAERRSHLEKYLRDFFS [A28M] | abundance fitness | -0.433 |
| ETWTVFRRYSRFRTMHKTLKLKYAELAALEFPPKKLFGNKDERVIAERRSHLEKYLRDFFS [E14T] | abundance fitness | -0.597 |
| ETWTVFRRYSRFREMHKTLKLKYAELAALELPPKKLFGNKDERVIAERRSHLEKYLRDFFS [F31L] | abundance fitness | -0.397 |
| ETWTVFRRYSRFREMHKTLKLKYAELAALEFPPKKLFGNKDERVIAEKRSHLEKYLRDFFS [R48K] | abundance fitness | -0.061 |
| ETWMVFRRYSRFREMHKTLKLKYAELAALEFPPKKLFGNKDERVIAERRSHLEKYLRDFFS [T4M] | abundance fitness | -0.077 |

Provide the reported abundance fitness of each entry below, same order.
1. ETWTVFMRYSRFREMHKTLKLKYAELAALEFPPKKLFGNKDERVIAERRSHLEKYLRDFFS [R7M]
2. ETWTVFRRYSRFRHMHKTLKLKYAELAALEFPPKKLFGNKDERVIAERRSHLEKYLRDFFS [E14H]
3. ETWTVFRRMSRFREMHKTLKLKYAELAALEFPPKKLFGNKDERVIAERRSHLEKYLRDFFS [Y9M]

[-0.04, 0.13, 0.163]

Provide the reported abundance fitness of each entry below, same order.
1. ETWTVFRRYSRFREMCKTLKLKYAELAALEFPPKKLFGNKDERVIAERRSHLEKYLRDFFS [H16C]
2. ETWTVFRRYSRFREMHKTLKLKYAELAALEFPPKKLFGNKDERVIAERRSHLEKYLRFFFS [D58F]

1. 0.016
2. 0.049

Provide the reported abundance fitness of each entry below, same order.
1. ETWTVFRRYSRFQEMHKTLKLKYAELAALEFPPKKLFGNKDERVIAERRSHLEKYLRDFFS [R13Q]
2. ETWTVFRRYSRFREMHKTLKLKYAELAALEFPPKKLFGNKDERVRAERRSHLEKYLRDFFS [I45R]
3. ETWTVFRRYSRFREMHKTLKLKYAELAALEFPPKKLFGNKDERVIAERRSHLEKYLRDFFK [S61K]
4. ETWTVFRRYSRFREMHKTLKLKYAELAALEFPPKKLFGNKDERRIAERRSHLEKYLRDFFS [V44R]
5. ETWTVFRRYSRFREMHKTLKLKYAELAALEFPPKKLFGNKDERVTAERRSHLEKYLRDFFS [I45T]

-0.398
0.133
-0.025
0.117
0.158
